// pIC50 collected for UniProt P54750
Sequence (P54750 whole entry): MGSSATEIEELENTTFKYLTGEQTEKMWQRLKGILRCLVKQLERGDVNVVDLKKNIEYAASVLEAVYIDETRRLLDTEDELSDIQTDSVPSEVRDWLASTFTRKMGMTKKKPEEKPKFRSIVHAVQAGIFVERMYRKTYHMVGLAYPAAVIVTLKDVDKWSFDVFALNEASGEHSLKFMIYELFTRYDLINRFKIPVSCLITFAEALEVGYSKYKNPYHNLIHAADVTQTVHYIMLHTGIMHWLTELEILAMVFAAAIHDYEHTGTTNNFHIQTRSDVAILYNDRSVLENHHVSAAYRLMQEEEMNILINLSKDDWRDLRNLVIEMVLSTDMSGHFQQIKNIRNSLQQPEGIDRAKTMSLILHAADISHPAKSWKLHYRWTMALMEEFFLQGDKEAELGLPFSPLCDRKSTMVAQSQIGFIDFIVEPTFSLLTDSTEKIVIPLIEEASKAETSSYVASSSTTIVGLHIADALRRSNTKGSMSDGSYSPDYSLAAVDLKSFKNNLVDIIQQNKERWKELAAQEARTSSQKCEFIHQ
// returns pIC50 (minus log10 of molar concentration), number only

Worked examples follow.
[[record]]
compound = "O=c1c2cnc(C3CC3)n2ccn1CC1CCCCC1 [Example 8]"
measured_endpoint = "pIC50"
endpoint_result = 6.60

[[record]]
compound = "COC1(c2ncc3c(=O)n(Cc4cccc(F)c4)c(C)cn23)CCOCC1 [Example 28]"
measured_endpoint = "pIC50"
endpoint_result = 6.18

[[record]]
compound = "Cc1cn2c(C3(C)CCOC3)ncc2c(=O)n1Cc1cccc(F)c1 (single isomer, unassigned; isomer 2) [32, isomer 2]"
measured_endpoint = "pIC50"
endpoint_result = 6.40


Quick check: pIC50 of CCc1cn2c(C3CCOCC3)ncc2c(=O)n1Cc1cccc(F)c1 [Example 54] ?
7.21

Quick check: pIC50 of COc1ccc(Cn2c(C)cn3c(C4CC(C)OC(C)C4)ncc3c2=O)cc1 (stereo not drawn) [Example 84] ?
6.20

Need pIC50, item COc1ccc(Cn2c(C)cn3c(NC4CCOC4)ncc3c2=O)cc1 (stereo not drawn) [Example 94]
5.60
